# Tested on: KG-1a cells
# experimental.protocol: MTT cytotoxicity assay in KG-1a cells
# Assay type: cell-based, human
# measurement.conditions: Homo sapiens, KG-1a, Table S7, KG-1a, first replicate; read-out: IC50 value R1
Measured IC50 of individual entries
reported.property: IC50 (mg/L)

INSERT INTO measurements (molecule, reported_property, comparative_sign, data_value) VALUES
  ('CCCCC/C=C/C(=O)CCc1ccc(O)c(OC)c1', 'IC50', '=', 2.98),
  ('O=C(/C=C/c1ccc(O)cc1)CC(=O)/C=C/c1ccc(O)cc1', 'IC50', '=', 17.1),
  ('CC(=O)[C@]1(O)Cc2c(O)c3c(c(O)c2[C@@H](O[C@H]2C[C@H](N)[C@H](O)[C@H](C)O2)C1)C(=O)c1ccccc1C3=O [Idarubicin, idarubicin, reference compound]', 'IC50', '=', 0.0259),
  ('Nc1ccn([C@@H]2O[C@H](CO)[C@@H](O)[C@@H]2O)c(=O)n1 [Cytarabine, cytarabine, reference compound]', 'IC50', '>', 100),
  ('COc1cccc2c1C(=O)c1c(O)c3c(c(O)c1C2=O)C[C@@](O)(C(=O)CO)C[C@@H]3O[C@H]1C[C@H](N)[C@H](O)[C@H](C)O1 [Doxorubicin, doxorubicin, reference compound]', 'IC50', '=', 0.807),
  ('COc1cc(/C=C/C(=O)CC(=O)/C=C/c2ccc(O)c(OC)c2)ccc1O', 'IC50', '=', 10.4);

----------
Measured IC50 of individual entries
# System: KG-1a cells
# experimental.protocol: MTT cytotoxicity assay in KG-1a cells
# Type: cell-based, human
# measurement.conditions: Homo sapiens, KG-1a, Table S7, KG-1a, second replicate; read-out: IC50 value R2
reported.property: IC50 (µg/mL)

INSERT INTO results (molecule, assayed_target, comparative_sign, data_value) VALUES
  ('COc1cccc2c1C(=O)c1c(O)c3c(c(O)c1C2=O)C[C@@](O)(C(=O)CO)C[C@@H]3O[C@H]1C[C@H](N)[C@H](O)[C@H](C)O1 [Doxorubicin, doxorubicin, reference compound]', 'KG-1a cells', '=', 0.622),
  ('CC(=O)[C@]1(O)Cc2c(O)c3c(c(O)c2[C@@H](O[C@H]2C[C@H](N)[C@H](O)[C@H](C)O2)C1)C(=O)c1ccccc1C3=O [Idarubicin, idarubicin, reference compound]', 'KG-1a cells', '=', 0.0318),
  ('O=C(/C=C/c1ccc(O)cc1)CC(=O)/C=C/c1ccc(O)cc1', 'KG-1a cells', '=', 17.6),
  ('Nc1ccn([C@@H]2O[C@H](CO)[C@@H](O)[C@@H]2O)c(=O)n1 [Cytarabine, cytarabine, reference compound]', 'KG-1a cells', '>', 100),
  ('COc1cc(/C=C/C(=O)CC(=O)/C=C/c2ccc(O)c(OC)c2)ccc1O', 'KG-1a cells', '=', 10.6);

----------
# System: CD34 protein expression in KG-1a cells
# experimental.protocol: CD34 protein expression in KG-1a cells by Western blotting
# Format: cell-based, human
# measurement.conditions: IC20 concentrations, 48 h, normalized to GAPDH
reported.property: decrease of CD34 protein level compared to VC (%)

INSERT INTO measurements (given_smiles, assayed_target, data_value) VALUES
  ('COc1cc(/C=C/C(=O)CC(=O)/C=C/c2ccc(O)c(OC)c2)ccc1O', 'CD34 protein expression in KG-1a cells', 29.29),
  ('CCCCC[C@H](O)CC(=O)CCc1ccc(O)c(OC)c1', 'CD34 protein expression in KG-1a cells', 31.95),
  ('CCCCC/C=C/C(=O)CCc1ccc(O)c(OC)c1', 'CD34 protein expression in KG-1a cells', 35.93),
  ('COc1cc(/C=C/C(O)=C/C(=O)/C=C/c2ccc(O)cc2)ccc1O', 'CD34 protein expression in KG-1a cells', 32.79);

----------
# System: KG-1a cells
# experimental.protocol: MTT cytotoxicity assay in KG-1a cells
# Type: cell-based, human
# measurement.conditions: IC50 for normal cells (PBMCs) / IC50 for cancer cells (KG-1a), 48 h
Measured Selectivity index (SI) of individual entries
reported.property: Selectivity index (SI)

INSERT INTO measurements (compound, reported_property, comparative_sign, data_value) VALUES
  ('Nc1ccn([C@@H]2O[C@H](CO)[C@@H](O)[C@@H]2O)c(=O)n1 [Cytarabine, cytarabine, reference compound]', 'Selectivity index (SI)', '>', 1),
  ('O=C(/C=C/c1ccc(O)cc1)CC(=O)/C=C/c1ccc(O)cc1', 'Selectivity index (SI)', '=', 0.65),
  ('CCCCC/C=C/C(=O)CCc1ccc(O)c(OC)c1', 'Selectivity index (SI)', '=', 3.07),
  ('CCCCC[C@H](O)CC(=O)CCc1ccc(O)c(OC)c1', 'Selectivity index (SI)', '>', 1.30),
  ('COc1cc(/C=C/C(=O)CC(=O)/C=C/c2ccc(O)c(OC)c2)ccc1O', 'Selectivity index (SI)', '=', 1.31),
  ('COc1cc(/C=C/C(O)=C/C(=O)/C=C/c2ccc(O)cc2)ccc1O', 'Selectivity index (SI)', '=', 1.23),
  ('COc1cccc2c1C(=O)c1c(O)c3c(c(O)c1C2=O)C[C@@](O)(C(=O)CO)C[C@@H]3O[C@H]1C[C@H](N)[C@H](O)[C@H](C)O1 [Doxorubicin, doxorubicin, reference compound]', 'Selectivity index (SI)', '>', 1.53);

Cited source: paper PMC11869560
